Target: Voltage-gated inwardly rectifying potassium channel KCNH2 (Homo sapiens, UniProt Q12809)
Sequence (Q12809 whole entry): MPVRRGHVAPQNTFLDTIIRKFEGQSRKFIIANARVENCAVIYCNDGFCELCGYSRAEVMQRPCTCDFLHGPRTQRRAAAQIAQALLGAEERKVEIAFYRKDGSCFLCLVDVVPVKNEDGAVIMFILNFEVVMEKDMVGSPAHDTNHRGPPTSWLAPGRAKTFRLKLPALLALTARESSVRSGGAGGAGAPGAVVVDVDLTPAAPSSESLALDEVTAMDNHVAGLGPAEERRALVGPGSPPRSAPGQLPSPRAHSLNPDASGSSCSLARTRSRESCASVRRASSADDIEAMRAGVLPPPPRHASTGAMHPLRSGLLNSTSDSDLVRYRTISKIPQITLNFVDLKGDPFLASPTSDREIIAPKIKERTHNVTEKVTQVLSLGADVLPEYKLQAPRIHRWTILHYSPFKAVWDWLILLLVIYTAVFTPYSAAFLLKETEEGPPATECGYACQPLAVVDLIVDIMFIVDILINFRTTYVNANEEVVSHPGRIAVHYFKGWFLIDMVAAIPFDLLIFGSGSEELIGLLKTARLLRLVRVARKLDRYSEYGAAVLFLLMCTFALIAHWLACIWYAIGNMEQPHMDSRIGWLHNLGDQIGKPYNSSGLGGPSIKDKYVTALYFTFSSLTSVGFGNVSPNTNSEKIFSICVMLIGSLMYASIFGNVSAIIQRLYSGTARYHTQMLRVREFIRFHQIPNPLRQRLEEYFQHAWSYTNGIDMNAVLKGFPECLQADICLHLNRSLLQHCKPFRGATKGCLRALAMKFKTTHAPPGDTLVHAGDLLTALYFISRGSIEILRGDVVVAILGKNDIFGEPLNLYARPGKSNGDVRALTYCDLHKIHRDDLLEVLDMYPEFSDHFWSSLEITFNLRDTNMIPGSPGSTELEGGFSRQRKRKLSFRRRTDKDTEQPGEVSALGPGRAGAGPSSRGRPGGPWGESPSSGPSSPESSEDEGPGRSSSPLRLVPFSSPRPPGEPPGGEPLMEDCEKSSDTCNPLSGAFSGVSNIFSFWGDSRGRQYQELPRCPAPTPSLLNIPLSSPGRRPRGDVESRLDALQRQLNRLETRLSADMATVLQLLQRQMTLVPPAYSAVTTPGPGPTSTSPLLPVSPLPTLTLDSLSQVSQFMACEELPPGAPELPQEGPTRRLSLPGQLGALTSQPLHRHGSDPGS
Assay: Inhibition of human ERG by FLIPR assay

compoundStructureString	targetSystem	IC50
CC(C)N(C)[C@@H]1CC[C@H](N2CC[C@H](NC(=O)c3cccc(C(F)(F)F)n3)C2=O)[C@H](CS(C)(=O)=O)C1	Voltage-gated inwardly rectifying potassium channel KCNH2 (Homo sapiens, UniProt Q12809)	> 80 µM
CCS(=O)(=O)C[C@@H]1C[C@H](N(C)C(C)C)CC[C@@H]1N1CC[C@H](NC(=O)c2cccc(-c3ccccc3)c2)C1=O	Voltage-gated inwardly rectifying potassium channel KCNH2 (Homo sapiens, UniProt Q12809)	60 µM
CC(C)N(C)[C@@H]1CC[C@H](N2CC[C@H](NC(=O)c3cc(F)cc(C(F)(F)F)c3)C2=O)[C@H](CS(=O)(=O)C(C)(C)C)C1	Voltage-gated inwardly rectifying potassium channel KCNH2 (Homo sapiens, UniProt Q12809)	> 80 µM
CC(C)N(C)[C@@H]1CC[C@H](N2CC[C@H](NC(=O)c3cccc(OC(F)(F)F)c3)C2=O)[C@H](CS(=O)(=O)C(C)(C)C)C1	Voltage-gated inwardly rectifying potassium channel KCNH2 (Homo sapiens, UniProt Q12809)	> 80 µM

###

Tested on: Liver microsome
Conditions: human, microsomes, 10 min
Description: Metabolic stability in human liver microsomes assessed as compound remaining after 10 mins

compoundStructureString	Stability / %
CCS(=O)(=O)C[C@@H]1C[C@H](N(C)C(C)C)CC[C@@H]1N1CC[C@H](NC(=O)c2cccc(C(F)(F)F)c2)C1=O	100
CC(C)N(C)[C@@H]1CC[C@H](N2CC[C@H](NC(=O)c3cccc(C(F)(F)F)c3)C2=O)[C@H](CS(=O)(=O)C(C)C)C1	100
CC(C)N(C)[C@@H]1CC[C@H](N2CC[C@H](NC(=O)c3cccc(C(F)(F)F)c3)C2=O)[C@H](CS(=O)(=O)c2ccccc2)C1	88
CC(C)N(C)[C@@H]1CC[C@H](N2CC[C@H](NC(=O)c3cccc(C(F)(F)F)c3)C2=O)[C@H](CS(C)(=O)=O)C1	100
CC(C)N(C)[C@@H]1CC[C@H](N2CC[C@H](NC(=O)c3cccc(C(F)(F)F)c3)C2=O)[C@H](CS(=O)(=O)C(C)(C)C)C1	100

###

Assay: Clearance in mouse at 5 mg/kg, iv
Type: ADME, organism-based
Set-up: dose 5 mg/kg, route intravenous
Conditions: in vivo
measuredProperty: clearance

compoundStructureString	reportedValue
CC(C)N(C)[C@@H]1CC[C@H](N2CC[C@H](NC(=O)c3cccc(C(F)(F)F)c3)C2=O)[C@H](CS(=O)(=O)C(C)(C)C)C1	25 mL/min/kg

###

Target: C-C chemokine receptor type 2 (Homo sapiens, UniProt P41597)
Sequence (P41597 whole entry): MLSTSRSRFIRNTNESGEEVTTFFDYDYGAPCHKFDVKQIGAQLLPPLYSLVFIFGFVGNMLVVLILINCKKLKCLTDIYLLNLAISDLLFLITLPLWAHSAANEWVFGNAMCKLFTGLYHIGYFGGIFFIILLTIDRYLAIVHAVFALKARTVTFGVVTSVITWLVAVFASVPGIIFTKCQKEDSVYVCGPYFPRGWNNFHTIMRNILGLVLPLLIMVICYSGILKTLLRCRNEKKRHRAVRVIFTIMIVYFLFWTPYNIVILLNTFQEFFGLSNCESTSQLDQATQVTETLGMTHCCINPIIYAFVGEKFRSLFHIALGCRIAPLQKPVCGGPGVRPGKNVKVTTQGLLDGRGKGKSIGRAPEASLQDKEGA
Assay: Displacement of [125I]-labeled human MCP1 from CCR2 in human PBMC
// reported IC50 for each item listed

compoundStructureString	IC50
CCS(=O)(=O)C[C@@H]1C[C@H](N(C)C(C)C)CC[C@@H]1N1CC[C@H](NC(=O)c2cccc(-c3ccccc3)c2)C1=O	1.1 nM
Cc1ccc(C(=O)N[C@H]2CCN([C@H]3CC[C@@H](N(C)C(C)C)C[C@H]3CS(C)(=O)=O)C2=O)cc1C(F)(F)F	5.2 nM
CC(C)N(C)[C@@H]1CC[C@H](N2CC[C@H](NC(=O)c3cccc(OC(F)(F)F)c3)C2=O)[C@H](CS(=O)(=O)C(C)(C)C)C1	1.2 nM
CC(C)N(C)[C@@H]1CC[C@H](N2CC[C@H](NC(=O)c3cccc(C(C)(C)C)n3)C2=O)[C@H](CS(C)(=O)=O)C1	0.7 nM
